# Tested on: A549
# method: Growth inhibition of human A549/ATCC cells assessed as cell growth at 10 uM incubated for 48 hrs by sulforhodamine B assay relative to control
# Format: functional
# cond: A549, 48 h, read-out: Activity
measurement-type: growth at 10 µM (%)
Kindly answer with a numeric value in %, unit omitted.

These recorded examples may help you get a feel for the data.
smiles_code=COc1cc(Cl)cc(-c2nn(-c3cccc(NC(=O)Nc4ccc(Cl)c(C(F)(F)F)c4)c3)cc2-c2ccncc2)c1 tested_system=A549 numeric_readout=5.2
smiles_code=COc1cc(Cl)cc(-c2nn(-c3cccc(NC(=O)c4ccc(N5CCOCC5)c(C(F)(F)F)c4)c3)cc2-c2ccncc2)c1 tested_system=A549 numeric_readout=45.5
smiles_code=O=C(Nc1cccc(-n2cc(-c3ccncc3)c(-c3cc(O)cc(Cl)c3)n2)c1)Nc1ccc(Cl)c(C(F)(F)F)c1 tested_system=A549 numeric_readout=8.81

Now look at this entry.
Lookup: Recall and state the measured growth at 10 µM for O=C(Nc1cccc(-n2cc(-c3ccncc3)c(-c3cc(O)cc(Cl)c3)n2)c1)c1ccc(N2CCOCC2)c(C(F)(F)F)c1 .
Found: 9.62
